Quick reference: GI50 of the listed items.
test system: TK-10; assay: NCI tumour cell line growth inhibition, 48 h
Calls of active or inactive are those of the source. Cut-off read from the data, not from the text of the source: active = GI50 up to about 1.1 µM and inactive = higher.

Some entries whose results are on file:
>>> reported("Cc1ccc(-c2nnc(-c3ccc4ccccc4c3)o2)cc1")
"7.94 µM (inactive)"
>>> reported("CC(=O)OC1=C2CC3(C)OC(=O)CC(C)(C)C3=CC=C2C=C(C(C)C)C1=O (configuration not stated)")
"1.21 µM (inactive)"
>>> reported("C1CSCCCSCCCSCCCSCCCSC1")
"37.2 µM (inactive)"
>>> reported("COC(=O)c1ccc(/C=C2\\N=C(C)OC2=O)cc1")
"> 100 µM (inactive)"
>>> reported("C[n+]1cccc2ccc3cccnc3c21")
"27.5 µM (inactive)"
>>> reported("CCc1ccc(Nc2cc(=O)[nH]c(=S)n2C)cc1")
"> 100 µM (inactive)"

Look up GI50 for this compound: CC(=O)OC1CCCn2c1nc1c2C(=O)C(C)=C(N2CC2)C1=O (configuration not stated) 2.75 µM (inactive)
